Attribution: patent US8841309B2

Biological target: ENaC (Mus musculus, UniProt Q61180+Q9WU38+Q9WU39)
Construct: Mouse kidney M-1 cells were cultivated in DMEM containing 5% FCS and 5 μM dexamethasone; endogenous in cells
Sequence (Q61180 1-699): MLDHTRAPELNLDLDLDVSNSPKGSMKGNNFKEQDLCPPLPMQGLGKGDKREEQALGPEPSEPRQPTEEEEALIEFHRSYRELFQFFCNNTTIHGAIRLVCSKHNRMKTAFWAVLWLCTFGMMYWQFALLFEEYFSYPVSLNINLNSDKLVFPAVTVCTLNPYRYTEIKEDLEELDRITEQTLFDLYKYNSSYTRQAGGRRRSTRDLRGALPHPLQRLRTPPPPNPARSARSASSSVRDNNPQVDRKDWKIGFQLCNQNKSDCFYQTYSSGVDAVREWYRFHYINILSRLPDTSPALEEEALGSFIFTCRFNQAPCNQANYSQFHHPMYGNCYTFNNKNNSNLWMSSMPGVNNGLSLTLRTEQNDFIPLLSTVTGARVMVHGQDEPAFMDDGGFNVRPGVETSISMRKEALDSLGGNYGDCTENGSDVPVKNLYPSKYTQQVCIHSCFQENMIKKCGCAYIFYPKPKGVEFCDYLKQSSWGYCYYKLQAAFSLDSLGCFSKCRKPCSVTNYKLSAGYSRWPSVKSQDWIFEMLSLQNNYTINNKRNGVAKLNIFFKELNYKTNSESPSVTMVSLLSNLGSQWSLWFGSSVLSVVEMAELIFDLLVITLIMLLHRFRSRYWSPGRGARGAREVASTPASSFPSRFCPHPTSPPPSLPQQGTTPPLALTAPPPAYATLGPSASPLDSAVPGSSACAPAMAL
Sequence (Q9WU38 1-638): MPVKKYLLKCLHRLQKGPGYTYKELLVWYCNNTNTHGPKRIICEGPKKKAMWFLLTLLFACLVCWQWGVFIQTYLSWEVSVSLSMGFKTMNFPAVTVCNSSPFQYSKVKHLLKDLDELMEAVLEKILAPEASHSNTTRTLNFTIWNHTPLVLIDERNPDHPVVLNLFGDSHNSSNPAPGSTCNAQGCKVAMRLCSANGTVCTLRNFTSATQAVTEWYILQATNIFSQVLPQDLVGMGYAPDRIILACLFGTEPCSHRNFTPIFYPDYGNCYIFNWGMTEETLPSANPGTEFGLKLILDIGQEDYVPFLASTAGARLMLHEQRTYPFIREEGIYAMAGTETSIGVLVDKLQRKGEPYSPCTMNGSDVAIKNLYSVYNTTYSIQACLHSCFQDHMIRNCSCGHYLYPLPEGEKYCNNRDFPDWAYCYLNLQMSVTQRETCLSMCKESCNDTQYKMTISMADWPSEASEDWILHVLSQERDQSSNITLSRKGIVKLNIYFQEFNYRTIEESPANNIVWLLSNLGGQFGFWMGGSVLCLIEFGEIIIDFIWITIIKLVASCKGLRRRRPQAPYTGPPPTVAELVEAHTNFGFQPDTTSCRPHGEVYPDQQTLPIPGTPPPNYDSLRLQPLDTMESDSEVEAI
Sequence (Q9WU39 1-655): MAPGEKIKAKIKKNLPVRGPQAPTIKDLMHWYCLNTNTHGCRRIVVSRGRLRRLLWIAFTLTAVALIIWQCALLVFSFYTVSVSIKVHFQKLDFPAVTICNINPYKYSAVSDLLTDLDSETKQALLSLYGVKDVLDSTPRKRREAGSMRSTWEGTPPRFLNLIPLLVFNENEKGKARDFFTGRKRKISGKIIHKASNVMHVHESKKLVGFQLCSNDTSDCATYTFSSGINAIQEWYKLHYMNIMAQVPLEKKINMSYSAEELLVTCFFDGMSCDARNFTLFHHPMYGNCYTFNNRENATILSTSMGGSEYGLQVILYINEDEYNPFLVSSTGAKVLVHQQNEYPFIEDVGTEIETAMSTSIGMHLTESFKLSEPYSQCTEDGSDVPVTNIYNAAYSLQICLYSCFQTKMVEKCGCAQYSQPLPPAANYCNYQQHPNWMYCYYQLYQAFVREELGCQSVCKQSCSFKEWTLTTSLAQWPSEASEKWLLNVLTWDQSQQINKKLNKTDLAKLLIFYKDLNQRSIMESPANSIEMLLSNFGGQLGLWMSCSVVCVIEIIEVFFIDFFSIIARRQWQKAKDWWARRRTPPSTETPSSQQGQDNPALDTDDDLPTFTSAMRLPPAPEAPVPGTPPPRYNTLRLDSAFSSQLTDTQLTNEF
Experiment: Ussing chamber: short circuit current (I_sc) in mouse kidney M-1 cells, amiloride-sensitive
Details: compound applied to apical solution, 37° C.
pIC50: −log10 of the molar value.
Below, each entry is listed with its recorded pIC50.
Reported metric: pIC50

INSERT INTO measurements (molecule, val) VALUES
  ('NC(=NC(=O)c1nc(Cl)c(N)nc1N)N[C@@H]1C[N+]2(CC(=O)NCc3ccccc3)CCC1CC2', 8.15),
  ('CSc1cccc(C[N+]23CCC(CC2)[C@H](NC(N)=NC(=O)c2nc(Cl)c(N)nc2N)C3)c1', 7.92),
  ('CSc1ccc(C[N+]23CCC(CC2)[C@H](NC(N)=NC(=O)c2nc(Cl)c(N)nc2N)C3)cc1', 7.17),
  ('NC(=NC(=O)c1nc(Cl)c(N)nc1N)N[C@@H]1C[N+]2(CC(=O)NCC3(c4ccccc4)CCOCC3)CCC1CC2', 7.82),
  ('CCNC(=O)C[N+]1(C)CCC[C@H](N/C(N)=N/C(=O)c2nc(Cl)c(N)nc2N)C1 (mixture of isomers)', 7.34),
  ('CN(CCc1ccccc1)C(=O)C[N+]12CCC(CC1)[C@H](NC(N)=NC(=O)c1nc(Cl)c(N)nc1N)C2', 8.70),
  ('N#Cc1ccc(CNC(=O)C[N+]23CCC(CC2)[C@H](NC(N)=NC(=O)c2nc(Cl)c(N)nc2N)C3)cc1', 7.52);

* * *

Below, each entry is listed with its recorded pIC50.
Biological target: ENaC (Mus musculus, UniProt Q61180+Q9WU38+Q9WU39)
Construct: Mouse kidney M-1 cells were cultivated in DMEM containing 5% FCS and 5 μM dexamethasone; endogenous in cells
Sequence (Q61180 1-699): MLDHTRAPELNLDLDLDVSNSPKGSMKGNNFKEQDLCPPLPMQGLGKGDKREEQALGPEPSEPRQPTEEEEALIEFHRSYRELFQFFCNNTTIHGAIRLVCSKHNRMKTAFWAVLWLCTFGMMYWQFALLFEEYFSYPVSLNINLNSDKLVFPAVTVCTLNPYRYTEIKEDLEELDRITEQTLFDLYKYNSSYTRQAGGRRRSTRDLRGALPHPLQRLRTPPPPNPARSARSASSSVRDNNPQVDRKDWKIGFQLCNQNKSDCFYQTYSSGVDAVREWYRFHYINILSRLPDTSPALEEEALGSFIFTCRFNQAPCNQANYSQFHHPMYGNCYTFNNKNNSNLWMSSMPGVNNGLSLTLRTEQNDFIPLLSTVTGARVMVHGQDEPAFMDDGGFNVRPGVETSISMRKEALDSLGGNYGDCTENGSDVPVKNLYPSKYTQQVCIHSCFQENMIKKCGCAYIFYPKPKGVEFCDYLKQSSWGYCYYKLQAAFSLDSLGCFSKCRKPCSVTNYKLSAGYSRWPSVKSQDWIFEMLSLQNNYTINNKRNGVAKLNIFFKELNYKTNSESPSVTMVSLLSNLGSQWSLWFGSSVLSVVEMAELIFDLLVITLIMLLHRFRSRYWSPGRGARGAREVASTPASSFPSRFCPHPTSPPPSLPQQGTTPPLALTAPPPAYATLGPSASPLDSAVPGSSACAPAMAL
Sequence (Q9WU38 1-638): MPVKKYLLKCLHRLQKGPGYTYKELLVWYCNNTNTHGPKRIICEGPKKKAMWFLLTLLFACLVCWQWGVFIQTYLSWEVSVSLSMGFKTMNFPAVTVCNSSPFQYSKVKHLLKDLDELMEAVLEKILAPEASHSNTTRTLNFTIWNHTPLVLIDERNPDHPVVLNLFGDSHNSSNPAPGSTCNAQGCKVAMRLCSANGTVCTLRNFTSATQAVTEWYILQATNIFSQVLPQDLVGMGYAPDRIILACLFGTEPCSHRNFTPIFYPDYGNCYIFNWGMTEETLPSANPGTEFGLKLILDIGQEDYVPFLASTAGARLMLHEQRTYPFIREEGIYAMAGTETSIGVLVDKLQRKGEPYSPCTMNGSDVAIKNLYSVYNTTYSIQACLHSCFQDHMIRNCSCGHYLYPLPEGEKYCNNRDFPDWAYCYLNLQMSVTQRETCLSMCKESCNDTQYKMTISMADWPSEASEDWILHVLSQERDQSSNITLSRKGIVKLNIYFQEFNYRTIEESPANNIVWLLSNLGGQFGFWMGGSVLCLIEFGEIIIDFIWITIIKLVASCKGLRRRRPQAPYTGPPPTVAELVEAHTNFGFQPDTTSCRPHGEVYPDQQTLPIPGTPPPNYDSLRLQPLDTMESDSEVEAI
Sequence (Q9WU39 1-655): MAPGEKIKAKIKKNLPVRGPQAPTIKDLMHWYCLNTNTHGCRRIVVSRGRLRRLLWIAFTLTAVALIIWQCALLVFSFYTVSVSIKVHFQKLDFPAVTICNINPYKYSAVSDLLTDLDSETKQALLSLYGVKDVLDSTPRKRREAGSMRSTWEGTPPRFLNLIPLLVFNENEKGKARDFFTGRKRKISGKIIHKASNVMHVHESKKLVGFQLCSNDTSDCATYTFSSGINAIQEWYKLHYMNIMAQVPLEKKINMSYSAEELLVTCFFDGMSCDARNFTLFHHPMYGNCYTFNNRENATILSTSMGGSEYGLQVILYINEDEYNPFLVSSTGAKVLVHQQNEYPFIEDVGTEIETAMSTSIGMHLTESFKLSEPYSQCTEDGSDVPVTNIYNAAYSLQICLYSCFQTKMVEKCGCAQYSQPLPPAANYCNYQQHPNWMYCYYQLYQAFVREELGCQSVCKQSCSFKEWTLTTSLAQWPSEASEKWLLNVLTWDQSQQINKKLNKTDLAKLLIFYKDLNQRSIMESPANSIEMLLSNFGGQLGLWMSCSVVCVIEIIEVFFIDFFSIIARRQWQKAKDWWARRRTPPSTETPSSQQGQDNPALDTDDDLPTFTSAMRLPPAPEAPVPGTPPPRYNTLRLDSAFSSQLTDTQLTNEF
Experiment: Ussing chamber: short circuit current (I_sc) in mouse kidney M-1 cells, amiloride-sensitive
Conditions: compound applied to apical solution, 37° C.
pIC50: −log10 of the molar value.
Reported metric: pIC50

INSERT INTO measurements (compound, val) VALUES
  ('NC(=NC(=O)c1nc(Cl)c(N)nc1N)N[C@@H]1C[N+]2(Cc3cscn3)CCC1CC2 [Example 35]', 6.82),
  ('CC#CC[N+]12CCC(CC1)[C@H](NC(N)=NC(=O)c1nc(Cl)c(N)nc1N)C2 [Example 23]', 6.76),
  ('CCOC(=O)C[N+]12CCC(CC1)[C@H](NC(N)=NC(=O)c1nc(Cl)c(N)nc1N)C2 [Example 42]', 6.72),
  ('CCNC(=O)C(c1ccccc1)[N+]12CCC(CC1)[C@H](NC(=N)NC(=O)c1nc(Cl)c(N)nc1N)C2 (stereo partly shown) [Example 68.1]', 7.74),
  ('NC(=NC(=O)c1nc(Cl)c(N)nc1N)N[C@@H]1C[N+]2(Cc3ccc(Cl)s3)CCC1CC2 [Example 29]', 7.54),
  ('NC(=NC(=O)c1nc(Cl)c(N)nc1N)N[C@@H]1C[N+]2(CC(=O)OCc3ccccc3)CCC1CC2 [Example 39]', 7.64),
  ('Cc1nc(C[N+]23CCC(CC2)[C@H](NC(N)=NC(=O)c2nc(Cl)c(N)nc2N)C3)cs1 [Example 31]', 7.27);
